# credit: patent US11613531B2

# experimental_target: Recombinant ROCK1 (amino acids 1-535) (Homo sapiens (Human))
# Sequence (Q13464 1-535): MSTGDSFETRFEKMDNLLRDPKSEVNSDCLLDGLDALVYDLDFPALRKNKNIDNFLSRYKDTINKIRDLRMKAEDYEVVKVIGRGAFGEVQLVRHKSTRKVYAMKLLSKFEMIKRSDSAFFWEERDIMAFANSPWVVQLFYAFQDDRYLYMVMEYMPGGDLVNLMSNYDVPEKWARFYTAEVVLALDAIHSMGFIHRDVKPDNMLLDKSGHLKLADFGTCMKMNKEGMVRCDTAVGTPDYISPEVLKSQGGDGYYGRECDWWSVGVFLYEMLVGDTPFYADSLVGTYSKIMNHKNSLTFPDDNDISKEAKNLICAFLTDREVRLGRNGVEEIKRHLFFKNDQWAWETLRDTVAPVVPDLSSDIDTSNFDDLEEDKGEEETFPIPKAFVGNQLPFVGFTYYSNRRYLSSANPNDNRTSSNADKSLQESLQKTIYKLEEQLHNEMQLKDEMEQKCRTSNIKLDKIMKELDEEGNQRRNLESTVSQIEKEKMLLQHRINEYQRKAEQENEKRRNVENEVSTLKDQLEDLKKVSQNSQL
# experimental_protocol: Z′-Lyte kinase assay, ROCK1
# Format: biochemical
# condition_parameters: 9 points 2-fold serial dilution
pIC50: −log10 of the molar value.
measurement_kind: pIC50

compound="c1ccc(C2CCN(c3nccc(Nc4ccc(-c5ccncc5)cc4)n3)CCN2)cc1 (stereo not shown)" experimental_target="Recombinant ROCK1 (amino acids 1-535) (Homo sapiens (Human))" reading="< 6.00"
compound="Cc1cc(Nc2ccc(-c3ccncc3)cc2)nc(N2CCNC(C)CC2)n1 (stereo not shown)" experimental_target="Recombinant ROCK1 (amino acids 1-535) (Homo sapiens (Human))" reading="< 6.00"
compound="c1ccc(C2CCN(c3nccc(Nc4ccc5[nH]ncc5c4)n3)CCN2)cc1 (stereo not shown)" experimental_target="Recombinant ROCK1 (amino acids 1-535) (Homo sapiens (Human))" reading="< 6.00"
compound=Cc1cc(Nc2ccc3[nH]ncc3c2)nc(N2C3CNCC2C3)n1 experimental_target="Recombinant ROCK1 (amino acids 1-535) (Homo sapiens (Human))" reading=9.70

###

# experimental_target: Recombinant ROCK2 (amino acids 1-552) (Homo sapiens (Human))
# Sequence (O75116 1-552): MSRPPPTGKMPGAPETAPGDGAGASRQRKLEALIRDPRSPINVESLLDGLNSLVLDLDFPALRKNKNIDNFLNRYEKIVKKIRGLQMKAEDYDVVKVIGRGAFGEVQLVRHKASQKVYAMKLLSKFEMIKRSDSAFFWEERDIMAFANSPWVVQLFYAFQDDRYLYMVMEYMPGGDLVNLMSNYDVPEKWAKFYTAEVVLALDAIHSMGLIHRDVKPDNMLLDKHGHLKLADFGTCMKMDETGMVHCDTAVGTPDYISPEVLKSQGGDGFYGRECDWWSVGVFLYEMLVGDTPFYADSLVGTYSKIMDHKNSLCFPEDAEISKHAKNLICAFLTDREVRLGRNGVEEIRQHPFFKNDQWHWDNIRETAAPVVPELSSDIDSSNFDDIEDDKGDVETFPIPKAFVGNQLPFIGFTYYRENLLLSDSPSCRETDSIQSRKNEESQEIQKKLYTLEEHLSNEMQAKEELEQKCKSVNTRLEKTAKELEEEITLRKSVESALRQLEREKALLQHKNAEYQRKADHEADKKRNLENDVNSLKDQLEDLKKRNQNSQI
# experimental_protocol: Z′-Lyte kinase assay, ROCK2
# Format: biochemical
# condition_parameters: 1 μM compound; read-out: ROCK2 % inh. @ [conc]
Decide by inhibition at 1 µM: equal to or exceeding 70% means rule met, less means rule not met.

molecule="c1ccc2c(c1)C(C1CCCNC1)CN2c1nccc(Nc2ccc3[nH]ncc3c2)n1 (stereo not drawn)" label_value="rule not met"
molecule="Cc1nc(N2CCNC(C(C)C)C2)nc(Nc2ccc3[nH]ncc3c2)c1C (stereo not drawn)" label_value="rule not met"
molecule="CC1CN(c2ncc(Cl)c(Nc3ccc4[nH]ncc4c3)n2)CCN1 (stereo not drawn)" label_value="rule met"
molecule="COc1cnc(N2CCNC(C(C)C)CC2)nc1Nc1ccc2[nH]ncc2c1 (stereo not drawn)" label_value="rule not met"
molecule="Cc1cc(Nc2ccc3[nH]ncc3c2)nc(N2CCC3CNCC3CC2)n1 (stereo not drawn)" label_value="rule met"
molecule="CCC1CNCCCN1c1nccc(Nc2ccc3[nH]ncc3c2)n1 (stereo not drawn)" label_value="rule met"
molecule="CCC1CN(c2ncc(Cl)c(Nc3ccc4[nH]ncc4c3)n2)CCN1 (stereo not drawn)" label_value="rule not met"
molecule=c1ccc2c(Nc3ccc4[nH]ncc4c3)nc(N3CCCNCC3)nc2c1 label_value="rule met"
molecule=Cc1cc(Nc2ccc3[nH]ncc3c2)nc(N2C3CNCC2C3)n1 label_value="rule met"

###

# experimental_target: Recombinant ROCK1 (amino acids 1-535) (Homo sapiens (Human))
# experimental_protocol: Z′-Lyte kinase assay, ROCK1
# Format: biochemical
# condition_parameters: 0.5 μM compound; read-out: ROCK1 % inh. @ [conc]
measurement_kind: inhibition at 0.5 µM (%)

compound="c1cc(-c2cn[nH]c2)ccc1Nc1nc(N2C3CCC2CNC3)nc2c1COC2 [Example 279]" experimental_target="Recombinant ROCK1 (amino acids 1-535) (Homo sapiens (Human))" reading=76
compound="CC1CN(c2ncc(Cl)c(Nc3ccc4[nH]ncc4c3)n2)CC(C)N1 (stereo not shown) [Example 189]" experimental_target="Recombinant ROCK1 (amino acids 1-535) (Homo sapiens (Human))" reading=18
compound="COc1nc(N2C3CCC2CNC3)nc(Nc2ccc3[nH]ncc3c2)c1F [Example 319]" experimental_target="Recombinant ROCK1 (amino acids 1-535) (Homo sapiens (Human))" reading=98
compound="CCOC(=O)[C@]12CCNCCC1CN(c1ncc(F)c(Nc3ccc4[nH]ncc4c3)n1)C2 (stereo partly shown) [Example 322]" experimental_target="Recombinant ROCK1 (amino acids 1-535) (Homo sapiens (Human))" reading=17
